- TARGET_UNDER_TEST: E578Q VCP/p97 ATPase (Homo sapiens, UniProt P55072, E578Q)
- Sequence (P55072 whole entry E578Q): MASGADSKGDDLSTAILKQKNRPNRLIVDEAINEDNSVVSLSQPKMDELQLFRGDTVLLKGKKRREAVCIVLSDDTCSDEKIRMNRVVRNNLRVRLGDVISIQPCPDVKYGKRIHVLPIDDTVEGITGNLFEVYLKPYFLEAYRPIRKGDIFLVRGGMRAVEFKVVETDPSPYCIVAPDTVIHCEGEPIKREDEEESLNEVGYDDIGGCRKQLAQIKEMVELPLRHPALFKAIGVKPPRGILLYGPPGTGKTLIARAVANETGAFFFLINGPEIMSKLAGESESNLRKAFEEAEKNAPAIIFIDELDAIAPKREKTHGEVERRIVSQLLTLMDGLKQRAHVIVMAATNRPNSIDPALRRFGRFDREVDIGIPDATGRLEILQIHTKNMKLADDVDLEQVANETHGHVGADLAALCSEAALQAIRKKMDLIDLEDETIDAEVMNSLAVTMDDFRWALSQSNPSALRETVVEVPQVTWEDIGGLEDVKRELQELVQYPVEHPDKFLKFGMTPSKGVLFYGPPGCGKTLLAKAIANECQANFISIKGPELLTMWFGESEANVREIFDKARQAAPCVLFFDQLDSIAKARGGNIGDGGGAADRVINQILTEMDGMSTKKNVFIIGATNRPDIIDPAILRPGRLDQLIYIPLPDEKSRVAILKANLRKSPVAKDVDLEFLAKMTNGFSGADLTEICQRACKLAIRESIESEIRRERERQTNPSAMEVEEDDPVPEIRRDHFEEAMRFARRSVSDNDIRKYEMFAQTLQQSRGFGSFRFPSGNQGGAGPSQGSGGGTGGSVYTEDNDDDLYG
- METHOD_NOTES: In vitro ATPase assay, E578Q (D2 Walker B mutant, D1-active)
- PARTICULARS: 200 μM ATP, 8-dose titration
pIC50: −log10 of the molar value.
TEST_READOUT: pIC50

c1ccc(CNc2nc(NCc3ccccc3)c3ccccc3n2)cc1 : 4.96
COc1ccc(CCN2CCC(Nc3nc4ccccc4n3Cc3ccc(F)cc3)CC2)cc1 : < 4.52

[Q] Return value of pIC50 for input CC(C)(C)NC(=O)[C@@H]1C[C@@H]2CCCC[C@@H]2CN1C[C@@H](O)[C@H](Cc1ccccc1)NC(=O)[C@H](CC(N)=O)NC(=O)c1ccc2ccccc2n1 , no commentary.
[A] < 4.52

====

- TARGET_UNDER_TEST: E305Q VCP/p97 ATPase (Homo sapiens, UniProt P55072, E305Q)
- Sequence (P55072 whole entry E305Q): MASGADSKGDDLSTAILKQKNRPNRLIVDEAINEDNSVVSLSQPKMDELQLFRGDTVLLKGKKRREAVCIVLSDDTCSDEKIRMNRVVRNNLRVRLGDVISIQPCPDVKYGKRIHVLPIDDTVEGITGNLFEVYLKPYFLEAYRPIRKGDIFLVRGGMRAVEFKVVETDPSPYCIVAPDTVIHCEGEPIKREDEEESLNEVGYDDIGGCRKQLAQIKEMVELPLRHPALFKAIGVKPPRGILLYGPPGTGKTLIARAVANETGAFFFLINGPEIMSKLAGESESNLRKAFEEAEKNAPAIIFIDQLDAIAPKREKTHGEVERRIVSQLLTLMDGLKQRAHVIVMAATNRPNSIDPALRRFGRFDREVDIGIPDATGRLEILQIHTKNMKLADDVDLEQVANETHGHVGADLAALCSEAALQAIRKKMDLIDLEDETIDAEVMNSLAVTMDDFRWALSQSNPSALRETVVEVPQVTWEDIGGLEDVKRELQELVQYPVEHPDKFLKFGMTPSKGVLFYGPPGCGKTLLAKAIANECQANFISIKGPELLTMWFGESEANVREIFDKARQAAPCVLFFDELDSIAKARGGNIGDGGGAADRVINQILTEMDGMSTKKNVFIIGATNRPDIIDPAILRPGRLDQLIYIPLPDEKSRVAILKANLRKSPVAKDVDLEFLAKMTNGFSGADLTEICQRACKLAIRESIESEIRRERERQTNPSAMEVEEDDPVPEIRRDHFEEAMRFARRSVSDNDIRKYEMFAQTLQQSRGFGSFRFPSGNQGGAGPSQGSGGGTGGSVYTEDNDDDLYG
- METHOD_NOTES: In vitro ATPase assay, E305Q (D1 Walker B mutant, D2-active)
- Assay type: biochemical
- PARTICULARS: 200 μM ATP, 8-dose titration
Each record here notes measured IC50.
Return type: number; implicit unit µM.

[Q] Identify measured IC50 obtained with E305Q VCP/p97 ATPase (Homo sapiens, UniProt P55072, E305Q) for c1ccc(CNc2nc(NCc3ccccc3)c3ccccc3n2)cc1 .
[A] 5.5

[Q] Identify measured IC50 obtained with E305Q VCP/p97 ATPase (Homo sapiens, UniProt P55072, E305Q) for Clc1ccccc1C(c1ccccc1)(c1ccccc1)n1ccnc1 .
[A] 8

====

Each record here notes measured IC50.
- TARGET_UNDER_TEST: WT VCP/p97 ATPase (Homo sapiens)
- Sequence (P55072 whole entry): as the sequence (P55072 whole entry E578Q) above, with Q578E counted along it
- METHOD_NOTES: In vitro ATPase assay, WT VCP/p97
- PARTICULARS: 200 μM ATP, 8-dose titration
Return type: number; implicit unit µM.

Below: 2 compounds and their reported IC50.
COc1ccc(CCN2CCC(Nc3nc4ccccc4n3Cc3ccc(F)cc3)CC2)cc1 : 25
c1ccc(CNc2nc(NCc3ccccc3)c3ccccc3n2)cc1 : 3

[Q] Return value of IC50 for input Clc1ccccc1C(c1ccccc1)(c1ccccc1)n1ccnc1 , no commentary.
[A] 12

Ref: paper PMC5359624
